Kindly supply the reported kon values for the records listed here.
# assaySystem: T1, cynomolgus TGF-β RII/Fc (cynomolgus)
# T1 construct: extracellular domain; also called Cyno TGFBRII; Cyno TGFbRII
# experimentNotes: SPR Biacore T200, receptor-Fc captured by anti-human IgG, dAb as analyte, 1:1 model
# Description: Anti-human IgG was immobilised on a Biacore CM4 chip by primary amine coupling according to the manufacturer's instructions. Human TGF-β RII/Fc, cynomolgus TGF-β RII/Fc or human Fc fragment were captured on this surface. Domain antibodies were passed over the two captured receptors at 3 concentrations of 100, 10 and 1 nM (DOM23h-439 dAbs) or 100, 25 and 6.25 nM (DOM23h-271 dAbs). […]
Answers are plain numbers, in M⁻¹ s⁻¹.

Solved cases below.
[Q] Fill in the blank: the reported kon of DOM23h-439-44 (DOM23h-439-25 + C-terminal Alanine + 61N64R) (VHH, human VH dAb) VHH: EVQLLESGGGLVQPGGSLRLSCAASGFTFGTEQMWWVRQAPGKGLEFVSRIDSPGGRTYYANSVRGRFTISRDNSKNTLYLQMNSLRAEDTAVYYCAKRRPTGVSGTFYDYWGQGTLVTVSS is ____.
[A] 2.17e+07

[Q] Find the recorded kon belonging to DOM23h-271-133 (DOM23h-271-123 + C-terminal Alanine + 61N64R) (VHH, human VH dAb) VHH: EVQLLESGGGLVQPGGSLRLSCAASGSTFTEYRMWWVRQAPGKGLEWVSAIEPIGHRTYYANSVRGRFTISRDNSKNTLYLQMNSLRAEDTAVYYCAKQAPGEKWARRWDLDYWGQGTLVTVSS and report it.
[A] 8.84e+06

[Q] Param item = DOM23h-271-131 (DOM23h-271-123 + C-terminal Alanine + 61N) (VHH, human VH dAb) VHH: EVQLLESGGGLVQPGGSLRLSCAASGSTFTEYRMWWVRQAPGKGLEWVSAIEPIGHRTYYANSVKGRFTISRDNSKNTLYLQMNSLRAEDTAVYYCAKQAPGEKWARRWDLDYWGQGTLVTVSS ; retrieve measured kon.
[A] 6.81e+06

Turning now to a further record.
[Q] Report kon for DOM23h-271-123 (VHH, expressed from pC10) VHH: EVQLLESGGGLVQPGGSLRLSCAASGSTFTEYRMWWVRQAPGKGLEWVSAIEPIGHRTYYADSVKGRFTISRDNSKNTLYLQMNSLRAEDTAVYYCAKQAPGEKWARRWDLDYWGQGTLVTVSS please.
[A] 3.08e+06
